# ASSAYED_SYSTEM: … (Plasmodium falciparum)
# ASSAY_COMMENT: BLI, target on sensor
MEASURED_QUANTITY: pKd
pKd here is simply -log10 of the concentration when that concentration is written in mol/L.

The binder listed as AB-007045 (antibody, V domains shown) VH: QMQLVESGGGVVQPGRSLRLSCTASGFTFSTYAMHWVRQSPGQGLQWVAVISYHSTNKYYEDSVRGRFTISRDNSKNTLYLQMNSLRAEDTAVYYCARDAYSSSFFDFWGQGTLVTVSS VL: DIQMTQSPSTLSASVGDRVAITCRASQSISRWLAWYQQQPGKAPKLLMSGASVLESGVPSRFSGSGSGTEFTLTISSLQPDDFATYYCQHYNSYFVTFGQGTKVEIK shows pKd equal to 7.36

Form: binder = AB-007054 (antibody, V domains shown) VH: QMQLVESGGGVVQPGRSLRLSCTASGFTFSTYAMHWVRQSPGQGLQWVAVISYHSTNKYYEDSVRGRFTISRDNSKNTLYLQMNSLRAEDTAVYYCARDGYASSFFDFWGQGTLVTVSS VL: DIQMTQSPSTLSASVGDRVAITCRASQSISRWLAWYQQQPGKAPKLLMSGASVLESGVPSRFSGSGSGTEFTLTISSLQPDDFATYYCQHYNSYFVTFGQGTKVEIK ; pKd = 8.07

The binder identified as AB-007073 (antibody, V domains shown) VH: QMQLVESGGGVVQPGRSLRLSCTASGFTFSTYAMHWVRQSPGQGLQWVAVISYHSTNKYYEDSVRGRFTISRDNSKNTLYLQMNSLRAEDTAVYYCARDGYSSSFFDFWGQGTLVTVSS VL: DIQMTQSPSTLSASVGDRVAITCRASQSISRWLAWYQQQPGKAPKLLMSGASVLESGVPSRFSGSGSGTEFTLTISSLQPDDFATYYCQHYNSHFVTFGQGTKVEIK registered its pKd at 7.75

Quick note, pKd for AB-007033 (antibody, V domains shown) VH: QMQLVESGGGVVQPGRSLRLSCAASGFTFSTYAMHWVRQAPGQGLEWVAVISYHSTNKYYADSVRGRFTISRDNSKNTLYLQMNSLRAEDTAVYYCARDGYSSSFFDFWGQGTLVTVSS VL: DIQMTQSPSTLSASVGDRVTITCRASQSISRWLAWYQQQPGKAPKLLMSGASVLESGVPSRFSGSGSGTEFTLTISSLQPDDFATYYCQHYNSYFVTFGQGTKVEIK landed at 8.58

// pKd value for AB-007072 (antibody, V domains shown) VH: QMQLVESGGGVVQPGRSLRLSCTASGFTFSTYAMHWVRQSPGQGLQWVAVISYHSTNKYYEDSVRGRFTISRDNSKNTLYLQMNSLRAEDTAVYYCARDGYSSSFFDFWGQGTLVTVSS VL: DIQMTQSPSTLSASVGDRVAITCRASQSISRWLAWYQQQPGKAPKLLMSGASNLESGVPSRFSGSGSGTEFTLTISSLQPDDFATYYCQHYNSYFVTFGQGTKVEIK : 7.81

Record AB-007046 (antibody, V domains shown) VH: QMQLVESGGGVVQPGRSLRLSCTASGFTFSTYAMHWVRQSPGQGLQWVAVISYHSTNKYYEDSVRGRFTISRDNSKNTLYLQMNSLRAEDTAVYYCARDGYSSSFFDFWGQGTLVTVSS VL: DIQMTQSPSTLSASVGDRVAITCRASQSISRWLAWYQQQPGKAPKLLMSGASVLESGVPSRFSGSGSGTEFTLTISSLQPDDFATYYCQHYYSYFVTFGQGTKVEIK , field pKd: 8.04

What the record says about AB-007034 (antibody, V domains shown) VH: QVQLVESGGGVVQPGRSLRLSCAASGFTFSTYAMHWVRQAPGQGLEWVAVISYHSTNKYYADSVRGRFTISRDNSKNTLYLQMNSLRAEDTAVYYCARDGYSSSFFDFWGQGTLVTVSS VL: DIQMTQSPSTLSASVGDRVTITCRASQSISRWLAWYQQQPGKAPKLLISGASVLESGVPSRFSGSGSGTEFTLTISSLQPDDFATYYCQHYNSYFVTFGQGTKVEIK : pKd is 8.26

// data source = patent US20220195023A1
